target: C-X-C chemokine receptor type 5 (Homo sapiens); experiment: Antagonist activity against human CXCR5 expressed in RBL cells assessed as inhibition of human CXCL13-induced intracellular Ca2+ level by fluo-4/AM dye based FLIPR assay
Reported Metric: IC50
Express the reported value numerically, then name its unit.

>>> readout_value("CC(C)=Cc1c(C)cccc1C(=O)NC1(C(=O)O)Cc2ccccc2C1")
"0.033 µM"

State recorded IC50 for all listed compounds.
1. Cc1cccc(C(=O)NC2(C(=O)O)Cc3c(C)sc(C)c3C2)c1OC(C)C
2. C=CCOc1c(Cl)cccc1C(=O)NC1(C(=O)O)Cc2ccccc2C1

Result ::
1. 17.4 µM
2. 3.65 µM

* * *

Kindly state IC50 for each of the entries shown.
Target: C-X-C chemokine receptor type 5 (Homo sapiens)
Sequence (P32302 whole entry): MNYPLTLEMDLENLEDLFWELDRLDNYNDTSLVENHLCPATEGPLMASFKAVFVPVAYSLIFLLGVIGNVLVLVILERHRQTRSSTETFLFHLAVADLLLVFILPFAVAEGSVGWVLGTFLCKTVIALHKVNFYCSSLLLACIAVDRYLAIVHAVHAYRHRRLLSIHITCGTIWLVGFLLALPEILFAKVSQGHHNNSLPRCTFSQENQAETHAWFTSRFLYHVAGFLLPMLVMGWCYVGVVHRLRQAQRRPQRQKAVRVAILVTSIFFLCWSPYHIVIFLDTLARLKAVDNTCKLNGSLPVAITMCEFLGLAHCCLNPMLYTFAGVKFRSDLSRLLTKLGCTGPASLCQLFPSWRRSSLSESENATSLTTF
Experiment: Antagonist activity against human CXCR5 expressed in RBL cells assessed as inhibition of human CXCL13-induced intracellular Ca2+ level by fluo-4/AM dye based FLIPR assay
Give bare numbers, in µM.

>>> readout_value("CCCc1c(C)cccc1C(=O)NC1(C(=O)O)Cc2ccc(F)cc2C1 (stereo not given)")
0.047
>>> readout_value("COc1ccc2c(c1)CC(NC(=O)c1cccc(C)c1OC(C)C)(C(=O)O)C2 (stereo not given)")
18.2
>>> readout_value("CCC/C=C/c1c(C)cccc1C(=O)NC1(C(=O)O)Cc2ccccc2C1")
0.446

Query :: Please report IC50 for the following compound: Cc1cccc(C(=O)NC2(C(=O)O)Cc3ccc(C(F)(F)F)cc3C2)c1OC(C)C (stereo not given)
Result :: 14.8

* * *

molecular target: UniProtKB P32302; experiment: Antagonist activity against human CXCR5 expressed in RBL cells assessed as inhibition of human CXCL13-induced intracellular Ca2+ level by fluo-4/AM dye based FLIPR assay
pIC50: −log10 of the molar value.
Param threshold (7) applies to pIC50; output fulfilled when value >= threshold, not fulfilled when value < threshold.

As a guide, the following entries are already answered.
>>> assigned_label("CCCC(CC)c1c(C)cccc1C(=O)NC1(C(=O)O)Cc2ccccc2C1 (stereo unspecified)")
"not fulfilled"
>>> assigned_label("O=C(NC1(C(=O)O)Cc2ccc(F)cc2C1)c1cccc2c1CCCC2 (stereo unspecified)")
"not fulfilled"
>>> assigned_label("CCCc1c(C)cccc1C(=O)NC1(C(=O)O)Cc2ccccc2C1")
"fulfilled"
>>> assigned_label("C/C=C/c1c(C)cccc1C(=O)NC1(C(=O)O)Cc2ccccc2C1")
"not fulfilled"
>>> assigned_label("Cc1cccc(C(=O)NC2(C(=O)O)Cc3ccc(C#N)cc3C2)c1OC1CCC1 (stereo unspecified)")
"not fulfilled"
>>> assigned_label("Cc1cccc(C(=O)NC2(C(=O)O)Cc3ccc(F)cc3C2)c1OC(C)C (stereo unspecified)")
"not fulfilled"
>>> assigned_label("N#Cc1ccc2c(c1)CC(NC(=O)c1cccc3c1CCCC3)(C(=O)O)C2 (stereo unspecified)")
"not fulfilled"
>>> assigned_label("Cc1cccc(C(=O)NC2(C(=O)O)Cc3ccccc3C2)c1C1=CCCCC1")
"not fulfilled"
>>> assigned_label("O=C(NC1(C(=O)O)Cc2ccc(F)cc2C1)c1cc(Cl)cc(Cl)c1OC1CCC1 (stereo unspecified)")
"not fulfilled"
>>> assigned_label("Cc1cccc(C(=O)NC2(C(=O)O)Cc3ccc(F)cc3C2)c1C1=CCCC1 (stereo unspecified)")
"fulfilled"

# input for lookup
Query :: Hello, I need to know if `Cc1cccc(C(=O)NC2(C(=O)O)Cc3ccccc3C2)c1/C=C/C1CC1` has measured pIC50 not below 7. Thanks!
Result :: not fulfilled

* * *

Hi there, I'd appreciate the recorded pIC50 for every entry that follows.
molecular target: C-X-C chemokine receptor type 5 (Homo sapiens, UniProt P32302); assay: Antagonist activity against human CXCR5 expressed in RBL cells assessed as inhibition of human CXCL13-induced intracellular Ca2+ level by fluo-4/AM dye based FLIPR assay
Numbers only, as −log10 of the molar value.

>>> readout_value("Cc1cccc(C(=O)NC2(C(=O)O)Cc3ccc(C#N)cc3C2)c1OC(C)C (stereo unspecified)")
4.69

For each of the compounds below, note its pIC50.
1. O=C(NC1(C(=O)O)Cc2ccccc2C1)c1cccc2c1CCCC2
2. CC(C)Oc1c(Cl)cc(Cl)cc1S(=O)(=O)NC1(C(=O)O)Cc2ccccc2C1
3. Cc1cc2c(cc1C)CC(NC(=O)c1cccc(C)c1OC(C)C)(C(=O)O)C2
4. CC(C)=Cc1c(C)cccc1C(=O)NC1(C(=O)O)Cc2ccc(F)c(F)c2C1 (stereo unspecified)
5. O=C(NC1(C(=O)O)Cc2ccccc2C1)c1ccc(F)c2ccccc12
6. CCC/C=C\c1c(C)cccc1C(=O)NC1(C(=O)O)Cc2ccccc2C1
7. CCOc1ccc2ccccc2c1C(=O)NC1(C(=O)O)Cc2ccccc2C1

Result ::
[6.17, 4.80, 4.57, 8.30, 4.89, 7.00, 4.71]

Working through the 5 compounds below one at a time, give pIC50 for each.
1. Cc1cccc(C(=O)NC2(C(=O)O)Cc3ccccc3C2)c1C1=CCCC1
2. CC/C=C(/CC)c1c(C)cccc1C(=O)NC1(C(=O)O)Cc2ccccc2C1
3. CC(C)=Cc1c(C)cccc1C(=O)NC1(C(=O)O)Cc2ccc(F)cc2C1 (stereo unspecified)
4. C/C=C/c1c(C)cccc1C(=O)NC1(C(=O)O)Cc2ccc(F)cc2C1 (stereo unspecified)
5. COc1ccc2c(c1)CC(NC(=O)c1cccc3c1CCCC3)(C(=O)O)C2 (stereo unspecified)

Result ::
[7.25, 4.82, 7.96, 6.70, 5.02]

Please give pIC50, item by item, for the list that follows.
1. Cc1cccc(C(=O)NC2(C(=O)O)Cc3ccccc3C2)c1CC(C)C
2. Cc1sc(C)c2c1CC(NC(=O)c1cccc3c1CCCC3)(C(=O)O)C2
3. Cc1cccc(C(=O)NC2(C(=O)O)Cc3ccccc3C2)c1C1CCCC1

Result ::
7.85
5.55
6.27

* * *

target: C-X-C chemokine receptor type 5 (Homo sapiens); assay: Antagonist activity against human CXCR5 expressed in RBL cells assessed as inhibition of human CXCL13-induced intracellular Ca2+ level by fluo-4/AM dye based FLIPR assay
// class assignment uses IC50 with these ranges: lo = under 30 nM, mid = from 30 nM up to 5000 nM, hi = 5000 nM and over

Reference set, count: 3
>>> assigned_label("CC(C)=Cc1c(C)cccc1C(=O)NC1(C(=O)O)Cc2c(F)ccc(F)c2C1")
"mid"
>>> assigned_label("Cc1cccc(C(=O)NC2(C(=O)O)CCSCC2)c1OC(C)C")
"hi"
>>> assigned_label("O=C(NC1(C(=O)O)Cc2ccccc2C1)c1cccc2cc[nH]c12")
"hi"

Query :: Class for `O=C(NC1(C(=O)O)Cc2ccccc2C1)c1cncc2ccccc12` ?
Result :: hi

Query :: Lab note: sort Cc1cccc(C(=O)NC2(C(=O)O)Cc3ccc(C(N)=O)cc3C2)c1OC1CCC1 (stereo unspecified) into the matching IC50 band.
Result :: hi

Query :: Assign a bin to `O=C(NC1(C(=O)O)Cc2ccccc2C1)c1cccc2cccnc12`
Result :: hi

Query :: Please indicate the class for Cc1cccc(C(=O)N[C@@]2(C(=O)O)Cc3ccc(F)cc3C2)c1CC(C)C (single isomer, unassigned) based on its IC50.
Result :: lo

Query :: Into which bin does this compound go? NC(=O)c1ccc2c(c1)CC(NC(=O)c1cccc3c1CCCC3)(C(=O)O)C2 (stereo unspecified)
Result :: hi

* * *

biological target: C-X-C chemokine receptor type 5 (Homo sapiens, UniProt P32302); assay: Antagonist activity against human CXCR5 expressed in RBL cells assessed as inhibition of human CXCL13-induced intracellular Ca2+ level by fluo-4/AM dye based FLIPR assay
Reported Metric: IC50

Some solved entries appear below for comparison.
>>> readout_value("Cc1cccc(C(=O)NC2(C(=O)O)Cc3ccc(C(=O)O)cc3C2)c1OC1CCC1 (stereo not given)")
"> 30 µM"
>>> readout_value("O=C(NC1(C(=O)O)Cc2ccccc2C1)c1cccc2c1NCCC2")
"> 30 µM"
>>> readout_value("Cc1cccc(C(=O)NC2(C(=O)O)Cc3ccc(C(=O)O)cc3C2)c1OC(C)C (stereo not given)")
"> 30 µM"
>>> readout_value("CCCCCc1c(C)cccc1C(=O)NC1(C(=O)O)Cc2ccccc2C1")
"2.3 µM"
>>> readout_value("Cc1cccc(C(=O)NC2(C(=O)O)Cc3ccc(C(F)(F)F)cc3C2)c1OC1CCC1 (stereo not given)")
"7.8 µM"
>>> readout_value("Cc1cccc(C(=O)NC2(C(=O)O)Cc3ccccc3C2)c1CCC1CC1")
"0.097 µM"
>>> readout_value("O=C(NC1(C(=O)O)Cc2ccccc2C1)c1cnc2ccccc2n1")
"> 30 µM"
>>> readout_value("Cc1cccc(C(=O)NC2(C(=O)O)Cc3ccccc3C2)c1OCC1CC1")
"2.93 µM"

Could I get IC50 for every one of these entries?
1. CCCc1c(C)cccc1C(=O)NC1(C(=O)O)Cc2cc(F)c(F)cc2C1
2. Cc1cccc(C(=O)NC2(C(=O)O)Cc3cc(F)c(F)cc3C2)c1CC(C)C

Result ::
0.045 µM
0.017 µM

Source listed as ChEMBL document CHEMBL3714728.
